target: CDK12 (nuclear staining in CAL-120 cells) (Homo sapiens); construct: endogenous in cells; host or cells: CAL-120 human breast cancer cells (DSMZ ACC 459); experiment: CDK12 nuclear protein level: immunofluorescence/high content analysis (CAL-120); type: cell-based; conditions: CAL-120 cells, 24 h, immunofluorescence; 50% reduction of nuclear CDK12 staining intensity; median; read-out: CDK12 degradation IF, DC50- [mol/l] (median)
Sequence (Q9NYV4 whole entry): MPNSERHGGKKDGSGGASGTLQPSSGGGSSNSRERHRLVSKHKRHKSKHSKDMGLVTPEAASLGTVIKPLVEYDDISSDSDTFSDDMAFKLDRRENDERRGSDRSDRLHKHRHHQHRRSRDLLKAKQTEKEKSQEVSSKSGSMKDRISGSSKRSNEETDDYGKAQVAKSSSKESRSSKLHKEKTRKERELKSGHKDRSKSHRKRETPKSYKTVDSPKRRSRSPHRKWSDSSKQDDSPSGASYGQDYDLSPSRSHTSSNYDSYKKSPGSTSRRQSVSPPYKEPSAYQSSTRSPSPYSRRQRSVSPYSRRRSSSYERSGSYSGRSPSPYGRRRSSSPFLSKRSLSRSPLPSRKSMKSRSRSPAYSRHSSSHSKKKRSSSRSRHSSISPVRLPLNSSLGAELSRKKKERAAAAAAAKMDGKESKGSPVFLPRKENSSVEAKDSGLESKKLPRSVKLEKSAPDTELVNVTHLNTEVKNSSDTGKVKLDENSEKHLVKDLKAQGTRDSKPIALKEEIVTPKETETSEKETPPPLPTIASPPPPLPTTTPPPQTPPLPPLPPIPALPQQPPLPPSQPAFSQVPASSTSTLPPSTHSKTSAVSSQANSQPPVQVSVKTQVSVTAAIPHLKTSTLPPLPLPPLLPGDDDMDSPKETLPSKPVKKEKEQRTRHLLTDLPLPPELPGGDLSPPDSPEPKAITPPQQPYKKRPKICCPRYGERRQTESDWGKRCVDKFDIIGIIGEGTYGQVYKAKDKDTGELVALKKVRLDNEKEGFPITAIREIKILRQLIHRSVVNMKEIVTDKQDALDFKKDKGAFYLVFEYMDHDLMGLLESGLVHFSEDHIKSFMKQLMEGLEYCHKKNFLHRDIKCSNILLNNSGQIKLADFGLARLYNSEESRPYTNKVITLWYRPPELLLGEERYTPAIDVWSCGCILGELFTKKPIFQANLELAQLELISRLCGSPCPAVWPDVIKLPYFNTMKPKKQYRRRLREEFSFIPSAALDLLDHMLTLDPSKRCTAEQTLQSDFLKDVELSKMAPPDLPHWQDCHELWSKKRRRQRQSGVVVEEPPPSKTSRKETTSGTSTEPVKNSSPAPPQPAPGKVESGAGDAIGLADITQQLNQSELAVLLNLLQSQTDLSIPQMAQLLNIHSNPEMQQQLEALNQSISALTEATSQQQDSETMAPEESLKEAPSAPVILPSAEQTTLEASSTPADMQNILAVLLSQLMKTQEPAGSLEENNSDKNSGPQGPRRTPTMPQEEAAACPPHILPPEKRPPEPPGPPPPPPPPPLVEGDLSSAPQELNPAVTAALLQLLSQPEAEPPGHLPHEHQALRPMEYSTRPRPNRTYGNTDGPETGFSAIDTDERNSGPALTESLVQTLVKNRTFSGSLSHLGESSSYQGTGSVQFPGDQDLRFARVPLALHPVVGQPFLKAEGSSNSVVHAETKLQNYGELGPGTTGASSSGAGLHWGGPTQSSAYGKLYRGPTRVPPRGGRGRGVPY
Sequence (O75909 whole entry partner): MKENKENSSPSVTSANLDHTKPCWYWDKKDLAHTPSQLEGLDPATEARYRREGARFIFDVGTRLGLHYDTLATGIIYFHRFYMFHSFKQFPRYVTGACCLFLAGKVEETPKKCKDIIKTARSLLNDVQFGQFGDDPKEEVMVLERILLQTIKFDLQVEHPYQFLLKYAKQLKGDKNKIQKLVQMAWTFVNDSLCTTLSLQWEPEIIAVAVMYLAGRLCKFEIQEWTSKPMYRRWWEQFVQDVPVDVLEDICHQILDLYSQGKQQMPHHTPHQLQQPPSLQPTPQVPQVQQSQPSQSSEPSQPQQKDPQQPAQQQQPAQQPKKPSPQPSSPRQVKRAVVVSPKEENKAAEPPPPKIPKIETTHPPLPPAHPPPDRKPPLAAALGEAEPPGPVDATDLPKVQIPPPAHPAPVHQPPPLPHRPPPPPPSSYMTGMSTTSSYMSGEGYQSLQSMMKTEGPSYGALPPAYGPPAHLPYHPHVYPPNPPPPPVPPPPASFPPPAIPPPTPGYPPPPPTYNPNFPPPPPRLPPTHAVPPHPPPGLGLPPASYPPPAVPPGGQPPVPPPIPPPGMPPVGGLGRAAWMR
RESULT_TYPE: DC50 (nM)

Some solved cases for reference:
MOLECULE	RESULT_TYPE	OBSERVED_RESULT
CC(=O)NCCCc1cccc2[nH]c(CNc3nc(N4CCOCC4)nc4c(Br)cnn34)nc12.O=CO	DC50	45.3
CN1CCN(c2nc(NCc3nc4cc(OC(F)(F)F)ccc4[nH]3)n3ncc(Br)c3n2)CC1	DC50	20.2

P = Brc1cnn2c(NCc3nc4ccccc4[nH]3)nc(N3C[C@@H]4CN[C@@H]4C3)nc12.O=C(O)C(F)(F)F
Q = CN1CCN(c2nc(NCc3nc4c(F)c(F)ccc4[nH]3)n3ncc(C4CC4(F)F)c3n2)CC1 (centres unmarked)
R = Brc1cnn2c(NCc3nc4ccccc4[nH]3)nc(N3CC4CCNC4C3)nc12 (centres unmarked)
S = CN1CCN(c2nc(NCc3nc4c(F)c(F)ccc4[nH]3)n3ncc(-c4nccs4)c3n2)CC1
Query: List items by DC50 in falling order. Would you mind listing the labels in the order asked for?
Reply: S, P, R, Q

I = CC1(C)CN(c2nc(NCc3nc4ccccc4[nH]3)n3ncc(C4CC4)c3n2)CCO1
II = Brc1cnn2c(NCc3nnc(-c4ccccn4)[nH]3)nc(N3CCOCC3)nc12
Query: Short answer wanted: higher DC50, I or II ? Output the label that corresponds to your choice.
Reply: II
(II: 37.8 nM, I: 4.37 nM)
